# assayOverview: PK profiles after IV and PO administration to BALB/c mice
# Format: in vivo
# details: BALB/c, mouse, blood, iv, 5 mg/kg, IV 5.0 mg/kg, individual animals; read-out: MRTlast MRT(0-t)

| mol | MRT last / h |
| --- | --- |
| CC(=O)c1ccc(-c2cc(C(=O)c3ccc(C(F)(F)F)cc3)n3ccccc23)cc1 | 3.93 |

* * *

# assayOverview: PK profiles after IV and PO administration to BALB/c mice
# Assay type: in vivo
# details: BALB/c, mouse, blood, po, 20 mg/kg, PO 20 mg/kg, 0.50 h, mean; read-out: concentration in blood, Mean PO
propertyLabel: concentration at 0.5 h

| mol | measuredResult |
| --- | --- |
| CC(=O)c1ccc(-c2cc(C(=O)c3ccc(C(F)(F)F)cc3)n3ccccc23)cc1 | 156 ng/mL |

* * *

# assayOverview: PK profiles after IV and PO administration to BALB/c mice
# Type: in vivo
# details: BALB/c, mouse, blood, iv, 5 mg/kg, IV 5.0 mg/kg, individual animals; read-out: Vz_obs Vz
propertyLabel: Vd (L/kg)

| molecule | propertyLabel | resultUnit | measuredResult |
| --- | --- | --- | --- |
| CC(=O)c1ccc(-c2cc(C(=O)c3ccc(C(F)(F)F)cc3)n3ccccc23)cc1 [Compound 42] | Vd | L/kg | 12.7 |

* * *

# assayOverview: PK profiles after IV and PO administration to BALB/c mice
# Assay type: in vivo
# details: BALB/c, mouse, blood, po, 20 mg/kg, PO 20.0 mg/kg, mean n=3; read-out: MRT(0-t)

| compound | resultUnit | MRT last |
| --- | --- | --- |
| CC(=O)c1ccc(-c2cc(C(=O)c3ccc(C(F)(F)F)cc3)n3ccccc23)cc1 [Compound 42] | h | 7.64 |

* * *

# assayOverview: PK profiles after IV and PO administration to BALB/c mice
# Assay type: in vivo
# details: BALB/c, mouse, blood, iv, 5 mg/kg, IV 5.0 mg/kg, mean n=3; read-out: Vss_obs Vss
# From the text: The pharmacokinetics and oral bioavailability of Compound 42 were investigated in mice following single intravenous (IV) injection and oral administration (PO).

| compound | Vd |
| --- | --- |
| CC(=O)c1ccc(-c2cc(C(=O)c3ccc(C(F)(F)F)cc3)n3ccccc23)cc1 [Compound 42] | 10.2 L/kg |

* * *

# assayOverview: PK profiles after IV and PO administration to BALB/c mice
# Assay type: in vivo
# details: BALB/c, mouse, blood, iv, 5 mg/kg, IV 5 mg/kg, 4.00 h, mean; read-out: concentration in blood, Mean IV
propertyLabel: concentration at 4 h (ng/mL)

| compound | propertyLabel | resultUnit | measuredResult |
| --- | --- | --- | --- |
| CC(=O)c1ccc(-c2cc(C(=O)c3ccc(C(F)(F)F)cc3)n3ccccc23)cc1 [Compound 42] | concentration at 4 h | ng/mL | 107 |

* * *

# assayOverview: PK profiles after IV and PO administration to BALB/c mice
# Format: in vivo
# details: BALB/c, mouse, blood, iv, 5 mg/kg, IV 5 mg/kg, 24.00 h, mean; read-out: concentration in blood, Mean IV

| mol | concentration at 24 h (ng/mL) |
| --- | --- |
| CC(=O)c1ccc(-c2cc(C(=O)c3ccc(C(F)(F)F)cc3)n3ccccc23)cc1 | 34.9 |
